Hi there, I'd appreciate the recorded composite z-score for every entry that follows.
Molecular target: Dihydroorotate dehydrogenase (quinone), mitochondrial (Plasmodium falciparum (isolate 3D7)) (UniProt Q08210)
Sequence (Q08210 whole entry, looked up): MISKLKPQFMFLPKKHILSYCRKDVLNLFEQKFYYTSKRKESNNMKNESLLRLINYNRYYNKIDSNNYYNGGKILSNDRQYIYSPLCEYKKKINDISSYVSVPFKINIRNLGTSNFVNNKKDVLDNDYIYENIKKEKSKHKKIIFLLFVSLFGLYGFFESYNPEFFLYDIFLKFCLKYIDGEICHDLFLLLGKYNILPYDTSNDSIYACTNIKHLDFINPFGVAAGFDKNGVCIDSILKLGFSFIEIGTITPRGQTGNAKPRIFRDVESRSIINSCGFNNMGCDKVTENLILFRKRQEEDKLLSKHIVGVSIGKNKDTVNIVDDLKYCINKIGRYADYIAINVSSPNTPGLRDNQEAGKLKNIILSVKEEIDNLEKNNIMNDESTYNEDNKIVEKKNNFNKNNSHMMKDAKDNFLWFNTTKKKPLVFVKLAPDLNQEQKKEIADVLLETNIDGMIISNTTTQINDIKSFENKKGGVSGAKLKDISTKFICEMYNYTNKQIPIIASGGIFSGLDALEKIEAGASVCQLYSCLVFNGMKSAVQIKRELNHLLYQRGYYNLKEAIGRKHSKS
Assay: inhibition of P. falciparum DHODH – biochemical, C-terminal His tag, absorbance 600 nm, primary screen (AID 1175);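 also: recombinant parasite enzyme with a five histidine tag at its C terminus; test concentration not given here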
Details: PfDHODH enzyme, DCIP absorbance 600 nm; higher = more signal, called active from +8 up or from −8 down
Write the number on its own, no unit after it.

Query: What value of composite z-score has been recorded for this entry: COC(=O)[C@@]1(Cc2ccc(OC)cc2)[C@H]2c3cc(C(=O)N4CCCC4)n(CCO)c3C[C@H]2CN1C(=O)c1ccccc1
Result: -0.203

Query: What value of composite z-score has been recorded for this entry: Cc1ccccc1C(O)C1C=CC2C(=O)NC(=O)C2N1Nc1ccccn1 (configuration not stated)
Result: 1.57

Query: What value of composite z-score has been recorded for this entry: COc1cc(C(O)C2C=CC3C(=O)N(C)C(=O)C3N2Nc2ccccc2)cc(OC)c1OC (configuration not stated)
Result: 0.377

Query: What value of composite z-score has been recorded for this entry: C=CCC(OC(C)=O)[C@@H]1[C@@H](N(Cc2cccc3ccccc23)C(=O)Cc2ccc(OC)cc2)c2cc(OCCCO)ccc2N1C(=O)c1ccc(-c2ccccc2)cc1 (some centres not stated)
Result: -0.547

Query: What value of composite z-score has been recorded for this entry: COCCOC(=O)N1C(=O)[C@@]2(c3cc(C#CC4=CCCCC4)ccc31)[C@H](C(=O)Nc1nc3ccccc3s1)[C@H]1C(=O)O[C@H](c3ccccc3)[C@H](c3ccccc3)N1[C@@H]2c1ccc(O)cc1
Result: 0.347

Query: What value of composite z-score has been recorded for this entry: Oc1ccc2cc[n+](Cc3cc4c(cc3Br)OCO4)cc2c1
Result: -0.625

Query: What value of composite z-score has been recorded for this entry: C=CCOC(=O)[C@@H]1[C@H]2C(=O)O[C@H](c3ccccc3)[C@H](c3ccccc3)N2[C@H](c2ccc(OCCOC(=O)[C@@H]3C[C@@H]4C(=O)N[C@@H](CCCC[N+](C)(C)C)C(=O)N4[C@@H]3c3ccc(O)cc3)cc2)[C@@]12C(=O)Nc1ccc(I)cc12
Result: -2.02

Query: What value of composite z-score has been recorded for this entry: [N-]=[N+]=NCc1ccccc1C[C@@]1(C(N)=O)N=C(c2ccc(OCCCO)cc2)O[C@@H]1c1ccccc1
Result: -0.239

Query: What value of composite z-score has been recorded for this entry: CN(C)C(=O)[C@]1(Cc2ccccc2CN=[N+]=[N-])N=C(c2ccc(OCCCO)cc2)O[C@@H]1c1ccccc1
Result: -0.366

Query: What value of composite z-score has been recorded for this entry: CO[C@H]1O[C@H](CO)[C@@H](OC(=O)Nc2ccccc2)[C@H](OC(=O)c2cc3ccccc3[nH]2)[C@H]1OC(=O)c1cc2ccccc2[nH]1
Result: -0.49

Query: What value of composite z-score has been recorded for this entry: CCCCC[C@H]1OC[C@@]23C=C(Br)[C@@H](CC12)[C@@]1(CO1)C3=O (some centres not stated)
Result: -0.23

Query: What value of composite z-score has been recorded for this entry: [N-]=[N+]=Nc1ccccc1C[C@@]1(C(=O)N2CCOCC2)N=C(c2ccc(OCCCO)cc2)O[C@@H]1c1ccccc1
Result: -0.132

Query: What value of composite z-score has been recorded for this entry: C=CCNC(=O)[C@H]1[C@@H]2C(=O)O[C@@H](c3ccccc3)[C@@H](c3ccccc3)N2[C@@H](c2ccccc2OCCO)[C@]12C(=O)N(C(=O)OCCOC)c1ccc(C#CC3(O)CCCCCC3)cc12
Result: -1.12

Query: What value of composite z-score has been recorded for this entry: CO[C@H]1O[C@H](CO)[C@@H](OC(=O)CCc2ccccc2)[C@@H]2OC(=O)[C@@H](Cc3ccccc3)C/C=C/C[C@H](Cc3ccccc3)C(=O)O[C@@H]12
Result: -1.53

Query: What value of composite z-score has been recorded for this entry: C=CC[C@@]1(C(=O)NCCCOC)N=C(c2ccc(OCCCO)cc2)O[C@@H]1c1ccccc1
Result: -1.65

Query: What value of composite z-score has been recorded for this entry: CC(C)NC(=O)[C@@]1(C)c2ccccc2C(=O)N(Cc2ccc(OC(F)(F)F)cc2)[C@H]1c1ccc(CO)cc1
Result: -0.852

Query: What value of composite z-score has been recorded for this entry: COCCOC(=O)N1C(=O)[C@@]2(c3cc(C#CC4(O)CCCCCC4)ccc31)[C@H](C(=O)Nc1nc3ccccc3s1)[C@H]1C(=O)O[C@H](c3ccccc3)[C@H](c3ccccc3)N1[C@@H]2c1ccc(O)cc1
Result: -1.03

* * *

Experiment: change in splice reporter luminescence, either direction, cell-based, HEK293, spliceosome inhibition project, primary screen (AID 1101);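 also: HEK293 cells carrying a splicing-competent luciferase reporter gene; test concentration not given here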
Details: HEK293 splicing luciferase reporter, 24 h, higher = more signal, called active from +8 up or from −8 down
Param threshold (-0.5) applies to z-score; output Yes when value >= threshold, No when value < threshold.

Query: Is z-score at least -0.5? Consider Cc1ccc(S[C@]2(C(=O)NCC(F)(F)F)CC(=O)N(Cc3cc(C(F)(F)F)cc(C(F)(F)F)c3)[C@@H]2c2ccc(CO)cc2)cc1
Result: Yes

Query: Is z-score at least -0.5? Consider COC(=O)[C@@]1(Cc2ccc(F)cc2)[C@H]2c3cc(C(=O)N4CCCC4)n(CCc4c[nH]c5ccccc45)c3C[C@H]2CN1C(=O)c1ccccc1
Result: No

Query: Is z-score at least -0.5? Consider [N-]=[N+]=NCc1ccccc1[C@@H]1OC(c2ccc(OCCCO)cc2)=N[C@]1(CCS(=O)(=O)c1ccccc1)C(=O)O
Result: No

Query: Is z-score at least -0.5? Consider CO[C@H]1O[C@H](CO)[C@@H](OC(=O)Nc2ccc(Br)cc2)[C@@H]2OC(=O)[C@@H](Cc3ccccc3)C/C=C/C[C@H](Cc3ccccc3)C(=O)O[C@@H]12
Result: No

Query: Is z-score at least -0.5? Consider CCOC(=O)C1=C[C@@H](c2ccccc2)N(S(=O)(=O)c2ccc(C)cc2)[C@H]1c1ccc(OC)cc1
Result: No

Query: Is z-score at least -0.5? Consider CCOC(=O)C1=C[C@@H](C(C)(C)C)N(S(=O)(=O)c2ccc(C)cc2)[C@H]1c1cccc2ccccc12
Result: Yes

Query: Is z-score at least -0.5? Consider CCOC(=O)C[C@H]1[C@H](OC(=O)c2ccc(-c3ccccc3)cc2)[C@@H](NC(=O)CC(C)C)c2cc(OCCCO)ccc2N1C(=O)c1ccc2ccccc2n1
Result: No

Query: Is z-score at least -0.5? Consider CCCCCC1=C2CNC(C)(C(=O)OC)C=C2C(C)C1=O (centres undefined)
Result: Yes

* * *

Hi there, I'd appreciate the recorded z-score for every entry that follows.
Experiment: basal CRE-LacZ reporter activity in PC12 – cell-based, unstimulated, primary screen (AID 1145)
Conditions: no forskolin, luminescence, 4.5 h, higher = more signal, called active from +8 up or from −8 down
Write the number on its own, no unit after it.

Query: What value of z-score has been recorded for this entry: COCCCNC(=O)[C@@H]1c2ccccc2C(=O)N(C(C)C)[C@H]1c1ccc(CO)cc1
Result: -0.179

Query: What value of z-score has been recorded for this entry: Cc1ccc(S[C@]2(C(=O)NCc3ccccc3)CC(=O)N(C3CCCCC3)[C@@H]2c2ccc(CO)cc2I)cc1
Result: 0.389

Query: What value of z-score has been recorded for this entry: COC(=O)C1(CC(C)C)C=C2C(=C(c3ccccc3)C(=O)C2C)CN1 (stereo not drawn)
Result: 0.966

* * *

Hi there, I'd appreciate the recorded composite z-score for every entry that follows.
System: Inhibin beta A chain (activin A)
Assay: small molecules binding activin A – biochemical, small-molecule microarray, 635 nm fluorescence scan, primary screen (AID 1107);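 also: mouse activin A protein probed at 4.33 µg/mL on printed slides; score merges bound-protein fluorescence near 667 nm with spot signal-to-noise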
Settings: INHBA, higher = more signal
Write the number on its own, no unit after it.

Query: Give composite z-score (Inhibin beta A chain (activin A)) of the following compound: COc1ccc([Si](C)(C)[C@@H]2[C@@H](CC(=O)N3Cc4ccccc4C[C@H]3CO)O[C@]3(C(=O)N(Cc4ccc(N5C(=O)c6cccc7cccc5c67)cc4)c4ccccc43)[C@H]2C)cc1
Result: 0.772

Query: Give composite z-score (Inhibin beta A chain (activin A)) of the following compound: C=C[C@@H](CO)N(Cc1ccc(OC)cc1)S(=O)(=O)c1ccc(Br)cc1
Result: 0.0176

Query: Give composite z-score (Inhibin beta A chain (activin A)) of the following compound: O=C1N(Cc2ccccc2)c2ccccc2C[C@]12N=C(c1ccc(OCCCO)cc1)O[C@@H]2c1ccccc1
Result: 0.736

* * *

Test: compounds binding Alexa647 anti-His antibody – biochemical, small-molecule microarray, 635 nm fluorescence, artefact control for SMM control protein annotation, primary screen (AID 1128);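 also: score merges feature fluorescence with signal-to-noise for each printed compound spot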
Settings: higher = more signal
Hi there, I'd appreciate the recorded composite z-score for every entry that follows.
Write the number on its own, no unit after it.

Query: What value of composite z-score has been recorded for this entry: NC(=O)NCC#Cc1ccc2c(c1)[C@]1(C(=O)N2)[C@H](c2ccccc2OCCO)N2[C@H](c3ccccc3)[C@H](c3ccccc3)OC(=O)[C@H]2[C@@H]1C(=O)O
Result: -0.241

Query: What value of composite z-score has been recorded for this entry: COc1ccc([Si](C)(C)[C@H]2[C@H](CC(=O)N(CCO)Cc3ccccc3)O[C@@]3(C(=O)N(C)c4c(Br)cc(C)cc43)[C@@H]2C)cc1
Result: 1.19

Query: What value of composite z-score has been recorded for this entry: OCCCC1=CC(c2ccc(CN3CCCC3)cc2)N(Cc2cc3c(cc2Br)OCO3)CC1 (stereo unspecified)
Result: 0.448

Query: What value of composite z-score has been recorded for this entry: CCCCCC1=C2CNC(C)(C(=O)OC)C=C2C(C)C1=O (stereo unspecified)
Result: 1.46

Query: What value of composite z-score has been recorded for this entry: CCCC=C(CCC)[C@@H](NP(=O)(c1ccccc1)c1ccccc1)c1ccc(-c2ccccc2)cc1
Result: 0.809

Query: What value of composite z-score has been recorded for this entry: COCCOC(=O)N1C(=O)[C@@]2(c3cc(C#CC4=CCCCC4)ccc31)[C@H](C(=O)Nc1nc3ccccc3s1)[C@H]1C(=O)O[C@H](c3ccccc3)[C@H](c3ccccc3)N1[C@@H]2c1ccc(O)cc1
Result: 0.174

Query: What value of composite z-score has been recorded for this entry: COc1cc2c(cc1O)C=[N+](Cc1sc3ccccc3c1Cl)CC2
Result: 0.505

Query: What value of composite z-score has been recorded for this entry: CCOC(=O)C[C@H]1[C@H](OC(=O)c2cc3ccccc3oc2=O)[C@@H](NC(=O)c2ccc3ccccc3n2)c2cc(OCCCO)ccc2N1C(=O)Cc1ccc(OC)cc1
Result: 0.357

Query: What value of composite z-score has been recorded for this entry: COC(=O)[C@@]1(Cc2ccc(F)cc2)[C@H]2c3cc(C(=O)N4CCCC4)n(CCc4c[nH]c5ccccc45)c3C[C@H]2CN1C(=O)c1ccccc1
Result: 1.56

Query: What value of composite z-score has been recorded for this entry: CCOC(=O)C[C@H]1[C@H](OC(=O)c2cc3ccccc3oc2=O)[C@@H](NC(=O)c2ccccc2)c2cc(OCCCO)ccc2N1C(=O)c1ccccc1
Result: 0.29

Query: What value of composite z-score has been recorded for this entry: COc1ccc([Si](C)(C)[C@@H]2[C@@H](CCO)O[C@]3(C(=O)N(Cc4ccccc4)c4ccc(NC(=O)[C@H](C)O)cc43)[C@H]2C)cc1
Result: 0.888

Query: What value of composite z-score has been recorded for this entry: [N-]=[N+]=Nc1ccccc1[C@@H]1OC(c2ccc(OCCCO)cc2)=N[C@]1(Cc1ccccc1)C(=O)N1CCCCC1
Result: 0.782

Query: What value of composite z-score has been recorded for this entry: [N-]=[N+]=Nc1ccccc1C[C@]1(C(=O)N2CCOCC2)COC(c2ccc(OCCCO)cc2)=N1
Result: 0.964

Query: What value of composite z-score has been recorded for this entry: CCOC(=O)C[C@H]1[C@H](OC(=O)Cc2ccc3c(c2)OCO3)[C@@H](NC(=O)C2CCCCC2)c2cc(OCCCO)ccc2N1C(=O)c1ccccc1
Result: 0.0657

Query: What value of composite z-score has been recorded for this entry: CC(C)N1C(=O)c2ccccc2[C@@H](C(=O)NCCN2CCOCC2)[C@@H]1c1ccc(CO)cc1
Result: 1.3

Query: What value of composite z-score has been recorded for this entry: CCCC[C@@H](O)C1=C(COC)C[C@H]2C(=O)N(Cc3ccccc3)C(=O)[C@H]2[C@H]1CO
Result: 0.708

Query: What value of composite z-score has been recorded for this entry: C=CC[C@@]1(C(=O)NCCCOC)N=C(c2ccc(OCCCO)cc2)O[C@@H]1c1ccccc1
Result: 2.85

Query: What value of composite z-score has been recorded for this entry: Cc1ccccc1C(O)C1C=CC2C(=O)NC(=O)C2N1Nc1ccccn1 (stereo unspecified)
Result: 0.744

Query: What value of composite z-score has been recorded for this entry: O=C1O[C@@H](c2ccccc2)[C@@H](c2ccccc2)N2[C@@H](c3ccc(OCCO)cc3)[C@]3(C(=O)Nc4ccc(C#CC5=CCCCC5)cc43)[C@@H](C(=O)NC[C@H](O)c3ccccc3)[C@H]12
Result: 2.25

Query: What value of composite z-score has been recorded for this entry: CC(C)[Si](C#C[Si](C(C)C)(C(C)C)C(C)C)(O[C@H](c1ccccc1)c1cn(Cc2ccccc2)nn1)C(C)C
Result: 0.259

Query: What value of composite z-score has been recorded for this entry: Cc1ccc(S[C@]2(C(=O)O)CC(=O)N(C3CCCCC3)[C@@H]2c2ccc(CO)cc2I)cc1
Result: 0.96

Query: What value of composite z-score has been recorded for this entry: C=CCN1C(=O)[C@]2(CCC(=O)OC(C)(C)C)N=C(c3ccc(OCCCO)cc3)O[C@@H]2c2ccccc21
Result: 2.42

Query: What value of composite z-score has been recorded for this entry: COc1cc(NN2C(C(O)c3ccco3)C=CC3C(=O)N(C)C(=O)C32)cc(OC)c1OC (stereo unspecified)
Result: 1.04

Query: What value of composite z-score has been recorded for this entry: NC(=O)NCC#Cc1ccc2c(c1)[C@]1(C(=O)N2)[C@H](C(=O)N2CCN(c3ncccn3)CC2)[C@H]2C(=O)O[C@H](c3ccccc3)[C@H](c3ccccc3)N2[C@@H]1c1ccc(O)cc1
Result: 1.43

Query: What value of composite z-score has been recorded for this entry: C=C[C@H]1C(C(=O)OCC)=CC[C@@H](c2ccccc2)N1S(=O)(=O)c1ccc(C)cc1
Result: 1.53

Query: What value of composite z-score has been recorded for this entry: COCCOC(=O)N1C(=O)[C@@]2(c3cc(C#CCNC(N)=O)ccc31)[C@H](C(N)=O)[C@H]1C(=O)O[C@H](c3ccccc3)[C@H](c3ccccc3)N1[C@@H]2c1ccccc1OCCO
Result: 0.193
